Hello, the source for this data is ChEMBL document CHEMBL6092149, in case you need it.

Assay: Cmax in overnight fasted rat at 10 mg/kg, po
Format: ADME, organism-based
Conditions: in vivo
recorded-metric: Cmax (ng/mL)

P: O=c1[nH]ccc2c(-c3cnc4cc(F)ccn34)ccc(Nc3ccc(C4CCOCC4)c(CN4CC[C@H](F)C4)n3)c12
Q: CN(C)Cc1nc(Nc2ccc(-c3cnc4cc(F)ccn34)c3c2C(=O)NC3)ccc1C1CCOCC1
Prompt: Could you point out whether the larger Cmax belongs to P or to Q ? Write down the label attached to your selection.
Completion: P

----------
Target: Mitogen-activated protein kinase kinase kinase kinase 1 (Homo sapiens, UniProt Q92918)
Sequence (Q92918 whole entry, the tested form may be a part): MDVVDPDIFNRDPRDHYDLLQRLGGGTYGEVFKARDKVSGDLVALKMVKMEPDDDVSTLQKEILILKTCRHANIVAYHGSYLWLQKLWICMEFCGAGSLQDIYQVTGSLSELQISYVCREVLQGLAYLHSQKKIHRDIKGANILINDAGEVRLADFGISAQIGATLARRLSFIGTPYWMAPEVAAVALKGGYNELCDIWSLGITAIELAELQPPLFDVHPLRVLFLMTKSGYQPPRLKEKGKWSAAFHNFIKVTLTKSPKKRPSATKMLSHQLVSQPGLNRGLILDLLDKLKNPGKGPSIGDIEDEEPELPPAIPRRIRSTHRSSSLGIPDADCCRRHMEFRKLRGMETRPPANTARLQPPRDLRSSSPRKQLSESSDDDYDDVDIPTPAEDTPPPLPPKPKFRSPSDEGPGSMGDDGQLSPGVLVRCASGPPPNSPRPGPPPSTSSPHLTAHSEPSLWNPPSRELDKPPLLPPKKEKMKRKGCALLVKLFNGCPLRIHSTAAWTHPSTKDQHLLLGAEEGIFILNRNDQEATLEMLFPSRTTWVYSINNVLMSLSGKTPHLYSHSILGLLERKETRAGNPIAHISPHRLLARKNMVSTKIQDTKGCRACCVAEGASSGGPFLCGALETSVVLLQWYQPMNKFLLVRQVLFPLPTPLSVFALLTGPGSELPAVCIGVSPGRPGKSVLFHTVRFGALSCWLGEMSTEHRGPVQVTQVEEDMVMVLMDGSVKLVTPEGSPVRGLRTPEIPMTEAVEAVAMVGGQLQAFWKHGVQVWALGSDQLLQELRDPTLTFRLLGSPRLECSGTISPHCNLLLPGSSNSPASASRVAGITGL
Experiment: Inhibition of N-terminal DYKDDDDK recombinant human HPK1 (1 to 346 residues) expressed in Sf21 insect cells preincubated for 10 min followed by fluorescein PKC and ATP addition and measured after 90 min by Envision2104 Multilabel Reader analysis
pIC50: −log10 of the molar value.
Each item that follows carries a reported pIC50.

Illustrative cases are given below, each with its answer.
- compound: "COC1CCN(Cc2nc(Nc3ccc(-c4cnc5cc(F)ccn45)c4cn[nH]c(=O)c34)ccc2C2CCOCC2)C1 (stereo not drawn)"
  pIC50: 7.61
- compound: "Cc1cc2c(-c3cnc4cc(F)ccn34)ccc(Nc3ccc(C4CCOCC4)c(CN(C)C)n3)c2c(=O)[nH]1"
  pIC50: "< 6.00"

# input for lookup
Prompt: Recorded pIC50 for `O=C(NCc1nc(Nc2ccc(-c3cnc4cc(F)ccn34)c3cn[nH]c(=O)c23)ccc1C1CCOCC1)NC1CC1` , please?
Completion: < 6.00
